The reported numbers originate from paper PMC8995400.

Assay: Plasma pharmacokinetics after IV injection in mice
Type: in vivo, BALB/CJ mice
Conditions: BALB/CJ, mouse, iv, 113 ug, Vss, Two-compartment model, IV, mice
Measurement Label: Vd (L)
Note: unit L is implicit; provide only the numeric part.

Prompt: Give the value of Vd reported for the following: `COc1cccc(-c2cc(=O)c3ccccc3o2)c1N`
Completion: 0.163

###

Assay: Plasma pharmacokinetics after IV injection in mice
Format: in vivo, BALB/CJ mice
Conditions: BALB/CJ, mouse, iv, 113 ug, MRT0-inf, One-compartment model, mice
Measurement Label: MRT inf (min)
Note: unit min is implicit; provide only the numeric part.

Prompt: Give the value of MRT inf reported for the following: COc1cccc(-c2cc(=O)c3ccccc3o2)c1N [PD98059]
Completion: 30.2

###

Test: Plasma pharmacokinetics after IV injection in mice
Type: in vivo, BALB/CJ mice
Details: BALB/CJ, mouse, iv, 113 ug, Vss, Non compartment model, IV, mice
Measurement Label: Vd (L)
Note: unit L is implicit; provide only the numeric part.

Prompt: Give the value of Vd reported for the following: `COc1cccc(-c2cc(=O)c3ccccc3o2)c1N`
Completion: 0.136

###

Assay: Plasma pharmacokinetics after IV injection in mice
Assay type: in vivo, BALB/CJ mice
Conditions: BALB/CJ, mouse, iv, 113 ug, C0, Two-compartment model, mice
Measurement Label: C0 (ng/mL)
Note: unit ng/mL is implicit; provide only the numeric part.

Prompt: Give the value of C0 reported for the following: COc1cccc(-c2cc(=O)c3ccccc3o2)c1N [PD98059]
Completion: 3150

###

Assay: Plasma pharmacokinetics after IV injection in mice
Type: in vivo, BALB/CJ mice
Conditions: BALB/CJ, mouse, iv, 113 ug, C0, One-compartment model, mice
Measurement Label: C0 (ng/mL)
Note: unit ng/mL is implicit; provide only the numeric part.

Prompt: Give the value of C0 reported for the following: `COc1cccc(-c2cc(=O)c3ccccc3o2)c1N`
Completion: 2630

###

Assay: Plasma pharmacokinetics after IV injection in mice
Type: in vivo, BALB/CJ mice
Conditions: BALB/CJ, mouse, iv, 113 ug, Cl, One-compartment model, mice
Measurement Label: clearance (mL/min)
Note: unit mL/min is implicit; provide only the numeric part.

Prompt: Give the value of clearance reported for the following: `COc1cccc(-c2cc(=O)c3ccccc3o2)c1N`
Completion: 1.25

###

Assay: Plasma pharmacokinetics after IV injection in mice
Format: in vivo, BALB/CJ mice
Conditions: BALB/CJ, mouse, iv, 113 ug, T1/2(α), Two-compartment model, mice
Measurement Label: half-life (min)
Note: unit min is implicit; provide only the numeric part.

Prompt: Give the value of half-life reported for the following: `COc1cccc(-c2cc(=O)c3ccccc3o2)c1N`
Completion: 9.06

###

Assay: Plasma pharmacokinetics after IV injection in mice
Format: in vivo, BALB/CJ mice
Settings: BALB/CJ, mouse, iv, 113 ug, T1/2(β), Two-compartment model, mice
Measurement Label: half-life (min)
Note: unit min is implicit; provide only the numeric part.

Prompt: Give the value of half-life reported for the following: `COc1cccc(-c2cc(=O)c3ccccc3o2)c1N`
Completion: 428

###

Test: Plasma pharmacokinetics after IV injection in mice
Format: in vivo, BALB/CJ mice
Details: BALB/CJ, mouse, iv, 113 ug, MRT0-inf, Non compartment model, mice
Measurement Label: MRT inf (h)
Note: unit h is implicit; provide only the numeric part.

Prompt: Give the value of MRT inf reported for the following: `COc1cccc(-c2cc(=O)c3ccccc3o2)c1N`
Completion: 7.29
